Where do the numbers come from? From the kinase profiling compilation of Christmann-Franck et al. (2016).

- target-desc: DAPK1 (human)
- assay-text: radiometric filter-binding kinase assay, Kinase HotSpot
- condition-summary: compound 0.5 µM; ATP 10 µM
Listed here: items and their measured residual activity.
Please reply with the bare figure in % and do not write the unit itself.

Cn1nc2c3c(cccc31)C(=O)c1ccccc1-2 :: 86.4
COc1ccc(OC)c2c(=S)c3ccccc3[nH]c12 :: 106
O=C1Nc2ccccc2/C1=C1/Nc2ccccc2/C1=N\OCCC(O)CO (stereo unspecified) :: 80.9

Query: Note down residual activity recorded for O=C1Nc2ccccc2/C1=C1\Nc2ccccc2\C1=N/O
Reply: 83.2

Query: Identify the reported residual activity for the following entry. O=C1Cc2c([nH]c3ccc(Br)cc23)-c2ccccc2N1
Reply: 101

Query: Tell me residual activity reported for COc1cc2ncnc(N3CCN(C(=O)Nc4ccc(Oc5ccccc5)cc4)CC3)c2cc1OC
Reply: 97.5

Query: Give the measured residual activity for Oc1ccc(Nc2nc(-c3ccc(Cl)cc3)cs2)cc1
Reply: 101

Query: In one line, give reported residual activity of the entry CCn1cnc2c(Nc3cccc(Cl)c3)nc(N[C@@H]3CCCC[C@@H]3N)nc21 .
Reply: 79.1
